The origin of these recorded values is paper PMC8815882.

Tested on: M. mycetomatis genome strain MM55
Experiment: CLSI M38-A2 based in vitro susceptibility screening (XTT or resazurin), growth at fixed concentration
Format: cell-based, Madurella mycetomatis
Details: Madurella mycetomatis, 25 uM, replicate A; read-out: Percentage survival at 25um, 25 um A
MEASURED_METRIC: activity at 25 µM

INSERT INTO results (test_smiles, measured_metric, value_reported) VALUES
  ('COc1ccc(SC(=O)N[C@H](CCC(=O)O)C(=O)O)cc1', 'activity at 25 µM', '78.8%'),
  ('Cc1ccc(N2CCC(CCOc3ccc(S(C)(=O)=O)cc3)CC2)nn1', 'activity at 25 µM', '79.1%'),
  ('O=C(/C=C\n1cnc(-c2cc(C(F)(F)F)cc(C(F)(F)F)c2)n1)NNc1ccccn1', 'activity at 25 µM', '79.7%');
